Target: PDE4B (human recombinant) (Homo sapiens, UniProt Q07343)
Construct: made in house
Sequence (Q07343 1-564 isoform Q07343-2): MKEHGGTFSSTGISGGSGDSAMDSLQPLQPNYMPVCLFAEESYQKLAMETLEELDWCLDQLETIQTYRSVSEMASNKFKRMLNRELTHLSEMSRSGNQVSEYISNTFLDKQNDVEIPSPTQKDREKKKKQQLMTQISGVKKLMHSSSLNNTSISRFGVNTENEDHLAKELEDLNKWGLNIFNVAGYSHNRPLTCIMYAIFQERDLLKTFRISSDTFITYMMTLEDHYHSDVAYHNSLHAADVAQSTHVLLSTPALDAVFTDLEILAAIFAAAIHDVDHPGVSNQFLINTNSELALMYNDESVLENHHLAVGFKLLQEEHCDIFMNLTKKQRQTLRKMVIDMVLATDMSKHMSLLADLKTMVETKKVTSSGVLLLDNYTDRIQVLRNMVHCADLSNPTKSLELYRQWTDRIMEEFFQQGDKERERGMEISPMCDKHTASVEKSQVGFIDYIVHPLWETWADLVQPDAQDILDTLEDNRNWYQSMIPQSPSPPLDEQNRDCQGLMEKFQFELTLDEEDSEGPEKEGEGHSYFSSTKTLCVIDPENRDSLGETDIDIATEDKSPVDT
Assay: Inhibition of PDE4B activity: Radioactive Scintillation Proximity Assay (SPA)
Type: biochemical
Conditions: SPA or FP format not given, read-out: PDE4B mean pIC50 (converted)
Structures can show the parent of a compound that is named as a salt.
measure: log10 of IC50 (log10 of the value in nM)
Values reflect log10 of reported IC50 (nM).

CN(C)c1cccc(Nc2c(C(N)=O)cnc3ccc(S(=O)(=O)C4CCCC4)cc23)c1 [Example 92] | 1.30
Cc1cc(S(=O)(=O)CCNS(C)(=O)=O)cc2c(Nc3cccc4c3CCO4)c(C(N)=O)cnc12 [Example 457] | -2.00

PDE4B (human recombinant) (Homo sapiens, UniProt Q07343) data for Cc1cc(S(C)(=O)=O)cc2c(Nc3cccc4c3CCO4)c(C(N)=O)cnc12 [Example 307] ; its log10 of IC50: -1.50

Known value: PDE4B (human recombinant) (Homo sapiens, UniProt Q07343) log10 of IC50 of the compound COc1ccc(S(=O)(=O)c2cc(C)c3ncc(C(N)=O)c(Nc4cccc(OC)c4)c3c2)cc1 [Example 265] equals -2.30

Given the compound COc1cccc(Nc2c(C(N)=O)cnc3c(C)cc(S(=O)(=O)c4cncc(C(=O)N(C)C)c4)cc23)c1 [Example 546, hydrochloride] and test system PDE4B (human recombinant) (Homo sapiens, UniProt Q07343), the measured log10 of IC50 is -1.70

Measured log10 of IC50 for this entry COc1cccc(Nc2c(C(N)=O)cnc3c(C)cc(S(=O)(=O)c4ccc(OC)c(OC)c4)cc23)c1 [Example 380] on PDE4B (human recombinant) (Homo sapiens, UniProt Q07343): -2.40

I looked up Cc1cc(S(C)(=O)=O)cc2c(Nc3cc(F)cc(F)c3)c(C(N)=O)cnc12 [Example 502] and its log10 of IC50 for PDE4B (human recombinant) (Homo sapiens, UniProt Q07343) was 0.10

PDE4B (human recombinant) (Homo sapiens, UniProt Q07343) data for Cc1cc(S(C)(=O)=O)cc2c(Nc3ccc4cnn(C)c4c3)c(C(N)=O)cnc12 [Example 309] ; its log10 of IC50: -1.10

Item Cc1cc(S(=O)(=O)c2cccc(C(=O)N(C)C)c2)cc2c(Nc3cccc(C#N)c3)c(C(N)=O)cnc12 [Example 408] was tested on PDE4B (human recombinant) (Homo sapiens, UniProt Q07343); the reported log10 of IC50 is -2.40

# lookup: COc1cccc(Nc2c(C(N)=O)cnc3ccc(S(=O)(=O)c4cccc(C(=O)N(C)C)c4)cc23)c1 [Example 400] on PDE4B (human recombinant) (Homo sapiens, UniProt Q07343), log10 of IC50 = -2.00

log10 of IC50 on PDE4B (human recombinant) (Homo sapiens, UniProt Q07343) for Cc1cc(S(=O)(=O)C2CCN(C(=O)c3ccco3)CC2)cc2c(Nc3cccc4c3CCO4)c(C(N)=O)cnc12 [Example 446] is -2.30

Short answer on PDE4B (human recombinant) (Homo sapiens, UniProt Q07343) for Cc1cccc(Nc2c(C(N)=O)cnc3c(Cl)cc(S(C)(=O)=O)cc23)c1 [Example 369] , log10 of IC50: -0.50

* * *

IC50 values by entry
Target: PDE5 (human recombinant) (Homo sapiens, UniProt O76074)
Test: Inhibition of PDE5 activity: Radioactive Scintillation Proximity Assay (SPA)
Assay type: biochemical
Settings: read-out: PDE5 mean pIC50 (converted)

Recorded IC50, per entry:
Cc1cc(S(C)(=O)=O)cc2c(Nc3ccc4cnn(C)c4c3)c(C(N)=O)cnc12 | > 12.6 µM
Cc1cc(S(C)(=O)=O)cc2c(Nc3cccc4c3CCO4)c(C(N)=O)cnc12 | > 25.1 µM
COc1cccc(Nc2c(C(N)=O)cnc3c(C)cc(S(=O)(=O)c4cccc(C(=O)N(C)C)c4)cc23)c1 | 2.51 µM
Cc1cc(S(=O)(=O)C2CCN(C(=O)c3ccco3)CC2)cc2c(Nc3cccc4c3CCO4)c(C(N)=O)cnc12 | > 31.6 µM
Cc1cc(S(C)(=O)=O)cc2c(Nc3cccc(C#N)c3)c(C(N)=O)cnc12 | > 31.6 µM

# evaluate next
// recorded IC50 for "Cc1cc(S(C)(=O)=O)cc2c(Nc3cc(F)cc(F)c3)c(C(N)=O)cnc12" : > 10 µM
